// reported IC50 for each item listed
biological target: Plasmepsin II (Plasmodium falciparum (isolate HB3)); test: Fluorescence Resonance Energy Transfer (FRET)-Based Assay; details: pH 5
Sequence (P46925 whole entry): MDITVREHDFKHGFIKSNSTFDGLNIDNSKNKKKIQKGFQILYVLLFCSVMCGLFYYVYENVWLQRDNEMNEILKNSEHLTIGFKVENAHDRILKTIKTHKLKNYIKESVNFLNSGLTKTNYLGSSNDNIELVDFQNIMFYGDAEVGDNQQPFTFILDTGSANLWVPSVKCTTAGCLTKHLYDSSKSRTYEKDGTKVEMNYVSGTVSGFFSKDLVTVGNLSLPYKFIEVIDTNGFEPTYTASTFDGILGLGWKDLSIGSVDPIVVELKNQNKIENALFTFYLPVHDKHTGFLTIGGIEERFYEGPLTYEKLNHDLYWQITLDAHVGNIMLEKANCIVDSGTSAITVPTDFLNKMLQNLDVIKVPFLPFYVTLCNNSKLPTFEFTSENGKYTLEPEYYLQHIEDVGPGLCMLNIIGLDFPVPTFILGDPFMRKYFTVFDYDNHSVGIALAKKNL
Lab book: enter the figure in nM, no units written.

Known IC50 results, listed for orientation:
c1ccc(NNc2ccccc2)cc1 [1,2-Diphenylhydrazine]
1050
COc1ccccc1C(=O)NN
1650
NNC(=O)c1ccccc1[N+](=O)[O-] [2-Nitrobenzohydrazide]
1000
c1cc(NNc2ccncc2)ccn1 [1,2-Dipyridinylhydrazine]
1450

Proceed to the following item.
Query: Requested read-out: IC50. Entry: CCCC(=O)NN [Butanohydrazide]
Result: 1250

###

target: UniProt:P07339
Sequence (P07339 65-162 limits assumed): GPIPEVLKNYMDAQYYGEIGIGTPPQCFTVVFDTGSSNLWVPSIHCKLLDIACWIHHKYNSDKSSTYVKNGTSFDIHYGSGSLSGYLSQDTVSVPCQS
Sequence (P07339 169-412 limits assumed): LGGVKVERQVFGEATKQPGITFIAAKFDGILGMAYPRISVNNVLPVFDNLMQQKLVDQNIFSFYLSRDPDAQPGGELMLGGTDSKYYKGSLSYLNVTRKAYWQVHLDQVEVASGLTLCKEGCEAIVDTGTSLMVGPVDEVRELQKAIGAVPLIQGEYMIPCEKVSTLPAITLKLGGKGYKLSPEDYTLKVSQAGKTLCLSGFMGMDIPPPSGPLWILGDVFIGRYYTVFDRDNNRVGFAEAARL
# strict inequality: IC50 < 2000 nM yields condition met, everything else yields condition not met

c1cc(NNc2ccncc2)ccn1 [1,2-Dipyridinylhydrazine]
condition not met

Query: # TODO verify IC50 < 2000 nM strictly for this molecule: CCCC(=O)NN [Butanohydrazide]
Result: condition met

Query: # TODO verify IC50 < 2000 nM strictly for this molecule: "COc1ccccc1C(=O)NN"
Result: condition met

Query: # TODO verify IC50 < 2000 nM strictly for this molecule: c1ccc(NNc2ccccc2)cc1 [1,2-Diphenylhydrazine]
Result: condition not met

Query: # TODO verify IC50 < 2000 nM strictly for this molecule: NNC(=O)c1ccccc1[N+](=O)[O-] [2-Nitrobenzohydrazide]
Result: condition met
